target: human plasma kallikrein (Homo sapiens); experiment: Determination of the plasma kallikrein activity (fluorogenic peptide substrate, AMC cleavage); conditions: plasma kallikrein from Kordia 0.6 nM; substrate H-Pro-Phe-Arg-AMC 10 μM; 30 min at 22° C.; in some cases averages from multiple determinations
Sequence (P03952 391-638 limits assumed): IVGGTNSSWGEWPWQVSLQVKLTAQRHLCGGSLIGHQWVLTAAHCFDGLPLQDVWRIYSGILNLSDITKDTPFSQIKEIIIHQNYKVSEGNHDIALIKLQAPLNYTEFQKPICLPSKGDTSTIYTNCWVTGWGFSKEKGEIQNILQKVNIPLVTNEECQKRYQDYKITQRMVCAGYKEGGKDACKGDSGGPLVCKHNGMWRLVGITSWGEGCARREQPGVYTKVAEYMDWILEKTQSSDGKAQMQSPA
Sequence (P03952 20-390 partner limits assumed): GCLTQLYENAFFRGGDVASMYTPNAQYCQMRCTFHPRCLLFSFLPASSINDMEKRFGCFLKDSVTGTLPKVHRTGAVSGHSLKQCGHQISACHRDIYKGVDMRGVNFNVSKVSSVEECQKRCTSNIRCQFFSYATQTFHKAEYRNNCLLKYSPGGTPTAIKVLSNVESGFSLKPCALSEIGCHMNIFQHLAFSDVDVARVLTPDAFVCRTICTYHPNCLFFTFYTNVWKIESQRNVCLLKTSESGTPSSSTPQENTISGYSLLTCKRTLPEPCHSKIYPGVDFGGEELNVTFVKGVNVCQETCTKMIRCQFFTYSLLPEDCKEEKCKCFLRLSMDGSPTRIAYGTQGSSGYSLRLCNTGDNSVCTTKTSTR
experimental readout: IC50 (nM)

compound="CNC(=O)c1ccc(NC(=O)C(CCOC(C)(C)C)n2cc(OC)c(-c3cc(Cl)ccc3OCC(F)(F)F)cc2=O)cn1 (racemic)" units_label=nM obs_value=60
compound="COc1cn(C(CCOC(C)(C)C)C(=O)Nc2ccc3nc(C(=O)O)cn3c2)c(=O)cc1-c1cc(Cl)ccc1OCC(F)(F)F (racemic)" units_label=nM obs_value=18

[I] CCCC(C(=O)Nc1ccc2nccnc2c1)n1cc(OC)c(-c2cc(Cl)ccc2OCC(F)(F)F)cc1=O (racemic)
[II] COc1cn(C(CC2COCCO2)C(=O)Nc2ccc(C(N)=O)c(F)c2)c(=O)cc1-c1cc(Cl)ccc1OCCF (stereo not drawn)
[in] Looking only at measured IC50, which entry is lower, I or II ? // output: label of the selected item
[out] I
(I: 59 nM, II: 310 nM)
